Please go through the items and note down their CLhep predicted at 1 µM.
Assay: Hepatic clearance in human liver microsomes at 1 uM after 20 to 60 mins by LC-MS/MS analysis
Format: ADME, Microsome

Hi there! I need CLhep predicted at 1 µM for each item below, if you can.
1. O=C(NCc1cccnc1)Nc1ccc(S(=O)(=O)N2C[C@@H]3C[C@H]2CO3)cc1
2. O=C(NCc1cccnc1)Nc1ccc(S(=O)(=O)N2CCCNCC2)cc1
3. C[C@@H]1CN(S(=O)(=O)c2ccc(NC(=O)NCc3cccnc3)cc2)C[C@H](C)O1

["3 mL/min/kg", "6 mL/min/kg", "17 mL/min/kg"]

====

Experiment: Hepatic clearance in CD-1 mouse hepatocytes at 1 uM by LC-MS/MS analysis
Assay type: ADME, cell-based, Liver, Hepatocyte
readout: CLhep predicted at 1 µM (mL/min/kg)
Numbers only, in mL/min/kg.

Looking for the measured CLhep predicted at 1 µM of `O=C(NCc1cccnc1)Nc1ccc(S(=O)(=O)N2CCC3(CCNC3)CC2)cc1` , can you help? 9.2

Looking for the measured CLhep predicted at 1 µM of `O=C(NCc1cccnc1)Nc1ccc(S(=O)(=O)N[C@H]2CCC[C@H](O)C2)cc1` , can you help? 19

Looking for the measured CLhep predicted at 1 µM of CC1CNCCN(S(=O)(=O)c2ccc(NC(=O)NCc3cccnc3)cc2)C1 (racemic) , can you help? 16

Looking for the measured CLhep predicted at 1 µM of `N[C@H]1CC[C@H](NS(=O)(=O)c2ccc(NC(=O)NCc3cccnc3)cc2)CC1` , can you help? 6.3

Others:
Looking for the measured CLhep predicted at 1 µM of `C[C@@H]1CN(S(=O)(=O)c2ccc(NC(=O)NCc3cccnc3)cc2)C[C@H](C)O1` , can you help? 55

====

Test: Hepatic clearance in human liver microsomes at 1 uM after 20 to 60 mins by LC-MS/MS analysis
Assay type: ADME, Microsome
Binary label based on CLhep predicted at 1 µM with cut-off 6 mL/min/kg: below gives 1, not below gives -1.

Here are 4 molecules together with their reported answers.
Determine if `O=C(NCc1cccnc1)Nc1ccc(S(=O)(=O)N2CC3(COC3)C2)cc1` shows CLhep predicted at 1 µM strictly lower than 6 mL/min/kg. -1

Determine if CC1CCN(S(=O)(=O)c2ccc(NC(=O)NCc3cccnc3)cc2)CCN1 (racemic) shows CLhep predicted at 1 µM strictly lower than 6 mL/min/kg. 1

Determine if `O=C(NCc1cnccn1)Nc1ccc(S(=O)(=O)c2ccccc2)cc1` shows CLhep predicted at 1 µM strictly lower than 6 mL/min/kg. 1

Determine if C[C@@H]1COC[C@@H](C)N1S(=O)(=O)c1ccc(NC(=O)NCc2cccnc2)cc1 (racemic) shows CLhep predicted at 1 µM strictly lower than 6 mL/min/kg. -1

Others:
Determine if `O=C(NCc1cccnc1)Nc1ccc(S(=O)(=O)N2C3CCC2COC3)cc1` shows CLhep predicted at 1 µM strictly lower than 6 mL/min/kg. -1
